Below, each entry is listed with its recorded Mean Fluorescence Intensity (MFI) Calreticulin.
system: Calreticulin; assay: FACS analysis of expression level of calreticulin on tumor cell surface; format: cell-based, Human; conditions: Toledo cells, 12 hours, 0.04 uM
Give your answer as a number; write no unit.

# annotated cases, reported Mean Fluorescence Intensity (MFI) Calreticulin shown
{"columns": ["molecule", "test_result"],
 "data": [
  ["COc1c(OCCCN2CCOCC2)ccc2c1N=C(NC(=O)c1cnc(N)nc1)N1CCN=C21", 77],
  ["Nc1ncn([C@@H]2O[C@H](CO)[C@@H](O)[C@H]2O)c(=O)n1", 71.9],
  ["Cn1c(CCCC(=O)O)nc2cc(N(CCCl)CCCl)ccc21", 70.1],
  ["Nc1cccc2c1CN(C1CCC(=O)NC1=O)C2=O (centres unmarked) [Lenalidomide]", 70.1]
]}

Next up:
Entry under review: `C=CC(=O)N1CCC[C@@H](n2nc(-c3ccc(Oc4ccccc4)cc3)c3c(N)ncnc32)C1` . Reported Mean Fluorescence Intensity (MFI) Calreticulin?
73.1
